# assay_details: Cell Viability - LYMP1-002 - Assay at 40 hr (AID 994);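 further: 0% = DMSO only and full inhibition = 92 µM tetraoctylammonium bromide; nearly all actives have a fitted effect of over 60% in size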
# measurement_parameters: LYMP1-002 lymphoblastoid cell viability; series mostly up to 92.2 µM
Inconclusive results are not listed. Active and inactive are the calls of the source. The call rests on the fitted dose curve; in most records, active means well fitted cell-killing curve with a large enough effect; inconclusive means small, poorly fitted or top-dose-only effect; inactive means flat fitted curve, though single readings scatter.
recorded_endpoint: outcome

C[C@H](CCC(=O)O)[C@H]1CC[C@H]2[C@@H]3CC[C@@H]4C[C@H](O)CC[C@]4(C)[C@H]3C[C@H](O)[C@]12C: inactive
CCCCO: inactive
OCl: inactive
Nc1nccs1: inactive
CCCCC: inactive
Oc1cccc(O)c1O: inactive

IN: Could you share which outcome value was measured for OC[C@H]1O[C@@H]2O[C@H]3[C@H](O)[C@@H](O)[C@@H](O[C@H]4[C@H](O)[C@@H](O)[C@@H](O[C@H]5[C@H](O)[C@@H](O)[C@@H](O[C@H]6[C@H](O)[C@@H](O)[C@@H](O[C@H]7[C@H](O)[C@@H](O)[C@@H](O[C@H]1[C@H](O)[C@H]2O)O[C@@H]7CO)O[C@@H]6CO)O[C@@H]5CO)O[C@@H]4CO)O[C@@H]3CO ?
OUT: inactive

IN: Now consider O=P(O)(O)O and answer again.
OUT: inactive

IN: Now consider CCOC(C)OCC and answer again.
OUT: inactive

----------
# target_desc: Tumor necrosis factor (Homo sapiens)
# assay_details: qHTS assay to identify small molecules that stimulate Tumor Necrosis Factor-alpha (TNF-alpha) secretion (AID 651757)
# measurement_parameters: Human cells, HTRF 665/615 ratio; series mostly up to 92.2 µM
Inconclusive results are not listed. Activity calls are given as the source filed them. The call rests on the fitted dose curve; in most records, active means well fitted curve in the direction sought with a large enough effect in the signal ratio; inconclusive means small, poorly fitted or top-dose-only effect, or a change in a side signal; inactive means no such curve, though single readings can be large or run the other way; the % refers to the signal ratio.
Can you answer with just one of these options? 1 = active, -1 = inactive

IN: Which result was noted for this compound in the test: [O-][N+](=Nc1ccccc1)c1ccccc1
OUT: -1

IN: Now consider C[C@H]1O[C@@H](O[C@H]2[C@@H](O)C[C@H](O[C@H]3[C@@H](O)C[C@H](O[C@H]4CC[C@@]5(C)[C@H](CC[C@@H]6[C@@H]5C[C@@H](O)[C@]5(C)[C@@H](C7=CC(=O)OC7)CC[C@]65O)C4)O[C@@H]3C)O[C@@H]2C)C[C@H](O)[C@@H]1O and answer again.
OUT: 1

IN: Now consider COC(=O)c1ccccc1O and answer again.
OUT: -1

IN: Now consider ClC(Cl)Cl and answer again.
OUT: -1

IN: Now consider C[C@H](CCC(=O)O)[C@H]1CC[C@H]2[C@@H]3CC[C@@H]4C[C@H](O)CC[C@]4(C)[C@H]3C[C@H](O)[C@]12C and answer again.
OUT: -1

----------
# Test system: ATS189
# assay_details: qHTS profiling for inhibitors of Plasmodium falciparum proliferation (AID 504749); further: nearly all actives have a fitted effect of over 60% in size
# measurement_parameters: P. falciparum in erythrocytes, SYBR Green DNA, 72 h; series mostly up to 28.7 µM
Records with an inconclusive call do not appear. Activity calls are given as the source filed them. Calls come from the whole dose curve; as a rule, active = well fitted inhibition curve with a large enough effect; inconclusive = small, poorly fitted or top-dose-only effect; inactive = flat fitted curve, though single readings scatter.
Can you answer with just one of these options? active, inactive

Reference set (4 entries):
C=CC(=O)O: inactive
CC(=O)Oc1cccc2c1C(=O)c1c(OC(C)=O)cc(C(=O)O)cc1C2=O: inactive
CCN(CC)CCCC(C)Nc1cc(/C=C/c2ccccc2Cl)nc2cc(Cl)ccc12 (stereo not given): active
NCC[C@H](O)C(=O)N[C@@H]1C[C@H](N)[C@@H](O[C@H]2O[C@H](CN)CC[C@H]2N)[C@H](O)[C@H]1O[C@H]1O[C@H](CO)[C@@H](O)[C@H](N)[C@H]1O: inactive

IN: Which result was noted for this compound in the test: [O]=[Bi][O][Bi]=[O]
OUT: inactive
